Target: T1, rabbit albumin (rabbit, UniProt P49065 25-608)
T1 construct: bought (Sigma); also called rabbit SA; BuSA
T1 sequence (P49065 25-608 limits assumed): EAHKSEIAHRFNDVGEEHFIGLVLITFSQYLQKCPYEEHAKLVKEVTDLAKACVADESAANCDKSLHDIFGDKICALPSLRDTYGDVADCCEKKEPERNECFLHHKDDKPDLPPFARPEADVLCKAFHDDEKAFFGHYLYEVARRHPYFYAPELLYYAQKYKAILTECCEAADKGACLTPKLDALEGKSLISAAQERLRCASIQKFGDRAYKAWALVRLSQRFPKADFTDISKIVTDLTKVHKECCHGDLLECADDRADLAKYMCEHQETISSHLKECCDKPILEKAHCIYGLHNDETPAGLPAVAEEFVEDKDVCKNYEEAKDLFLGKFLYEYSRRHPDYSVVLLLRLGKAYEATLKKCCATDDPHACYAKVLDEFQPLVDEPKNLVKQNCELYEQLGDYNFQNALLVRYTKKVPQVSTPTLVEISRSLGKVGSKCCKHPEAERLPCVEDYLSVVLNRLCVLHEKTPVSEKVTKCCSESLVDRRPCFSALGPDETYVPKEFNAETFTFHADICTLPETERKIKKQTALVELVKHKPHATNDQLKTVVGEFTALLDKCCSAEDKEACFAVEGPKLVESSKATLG
Experiment: SA08b competition ELISA
Bridges are numbered along the chain shown (N, C = ends). Where no end group is shown, it is not given here.
Category scheme (IC50): low range = under 400 nM, mid range = from 400 nM up to 4000 nM, high range = 4000 nM and over

>  <Binder>
Ac-RLIEDICLPRWGCLW-NH2 (disulfide 7-13 (inferred), synthetic) [SA31]

>  <Category>
low range

$$$$
>  <Binder>
Ac-IEDICLPRWGCLWED-NH2 (disulfide 5-11 (inferred), synthetic) [SA24]

>  <Category>
mid range

$$$$
>  <Binder>
Ac-DICLPRWGCL-NH2 (disulfide 3-9 (inferred), synthetic) [SA34]

>  <Category>
high range

$$$$
>  <Binder>
Ac-IEDICLPRWGCLWE-NH2 (disulfide 5-11 (inferred), synthetic) [SA30]

>  <Category>
mid range

$$$$
>  <Binder>
DICLPRWGCL-NH2 (disulfide 3-9 (inferred), synthetic) [SA19]

>  <Category>
high range

$$$$
>  <Binder>
Ac-RLIEDICLPRWGCLWEDD-NH2 (disulfide 7-13 (inferred), synthetic; disulfide oxidised) [SA21]

>  <Category>
low range

$$$$
>  <Binder>
Ac-RLIEDICLPRWGCLWED-NH2 (disulfide 7-13 (inferred), synthetic) [SA22]

>  <Category>
mid range

$$$$
>  <Binder>
Ac-ICLPRWGCLWED-NH2 (disulfide 2-8 (inferred), synthetic) [SA27]

>  <Category>
high range

$$$$
>  <Binder>
Ac-EDICLPRWGCLW-NH2 (disulfide 4-10 (inferred), synthetic) [SA32]

>  <Category>
mid range

$$$$
>  <Binder>
Ac-EDICLPRWGCLWED-NH2 (disulfide 4-10 (inferred), synthetic) [SA25]

>  <Category>
mid range

$$$$
>  <Binder>
ICLPRWGCLW-NH2 (disulfide 2-8 (inferred), synthetic) [SA18]

>  <Category>
high range

$$$$
>  <Binder>
DICLPRWGCLW-NH2 (disulfide 3-9 (inferred), synthetic; disulfide oxidised) [SA04]

>  <Category>
high range

$$$$
>  <Binder>
Ac-DICLPRWGCLWED-NH2 (disulfide 3-9 (inferred), synthetic) [SA26]

>  <Category>
mid range

$$$$
>  <Binder>
Ac-QRLIEDICLPRWGCLWEDDF-NH2 (disulfide 8-14 (inferred), synthetic) [SA20]

>  <Category>
low range

$$$$
>  <Binder>
Ac-RLIEDICLPRWGCL-NH2 (disulfide 7-13 (inferred), synthetic) [SA33]

>  <Category>
high range

$$$$
>  <Binder>
Ac-LIEDICLPRWGCLWED-NH2 (disulfide 6-12 (inferred), synthetic) [SA23]

>  <Category>
low range

$$$$
